# Assay info: amyloid nucleation score (Sup35N fusion, yeast selection) (log enrichment); library NNK2; higher = more nucleation; inactive = no reads after selection;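 note: zero at mode of non-aggregating sequences after 7 days selection at 30°C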
Property measured: amyloid nucleation score
One number for each entry.

Sample answers from the record:
Request: Note down amyloid nucleation score recorded for VSPALK
Response: -0.055

Request: Kindly indicate its recorded amyloid nucleation score. Item: HGQARWGR
Response: 1.47

Request: Item VSLLNGYGAHSDMSAVGRRR : provide amyloid nucleation score
Response: 0.649

// switching to the query substance
Request: For FHVKIGW , write its amyloid nucleation score.
Response: -0.086

* * *

# Assay info: amyloid nucleation score (Sup35N fusion, yeast selection) (log enrichment); library NNK3; higher = more nucleation; inactive = no reads after selection
Property measured: amyloid nucleation score

Request: Kindly indicate its recorded amyloid nucleation score. Item: LFSNTRVSSGYRSRLLSRCL
Response: inactive

Request: Tell us which amyloid nucleation score value is on record for RRGIWDSVKMEKFL
Response: inactive

Request: Identify measured amyloid nucleation score associated with PDTLRRNRVSRFTFAKRCGL
Response: -0.769

* * *

# Assay info: amyloid nucleation score (Sup35N fusion, yeast selection) (log enrichment); library NNK1; higher = more nucleation; inactive = no reads after selection
Property measured: amyloid nucleation score

Request: Return the recorded amyloid nucleation score value; entry: SNFGIIYM
Response: inactive

Request: Please look at this sequence and report its amyloid nucleation score: VPMLDLGKVYNRSACP
Response: inactive

Request: For the sequence CGADVNVWMTIWHYLFIDRG , report amyloid nucleation score.
Response: inactive

Request: State its amyloid nucleation score for this sequence: MNTLYCWGKCGLVTSLVGLI
Response: 0.059

* * *

# Assay info: amyloid nucleation score (Sup35N fusion, yeast selection) (log enrichment); library NNK3; higher = more nucleation; inactive = no reads after selection
Property measured: amyloid nucleation score

Worked cases, amyloid nucleation score given:
Request: Recall and state the measured amyloid nucleation score for LPSVDVRKTI .
Response: inactive

Request: Supply amyloid nucleation score value. Item: MYLGGKALIRPFPVYATAAW
Response: inactive

Request: Please report the measured amyloid nucleation score for FFMEIKYGWKV
Response: 0.898

Request: Please list amyloid nucleation score recorded for the substance DDASFIMERI
Response: inactive

Please look at the items below and tell me amyloid nucleation score for each one, in order.
1. IHRNNNFFRRGYVWSYEEHH
2. SVYFFQGTL
3. CMTTASVQDKMVLLVWLLDE
4. GNNCPRVSIFNREAKIDNVL
5. LTRFRDIRFLINKNGACKEW

Response:
1: inactive; 2: 1.29; 3: inactive; 4: inactive; 5: -0.213

Below is a list of substances. For each, state its recorded amyloid nucleation score.
1. VLKDNF
2. CSQIPLHKLTMCMLY

Response:
inactive
inactive

Quick batch: amyloid nucleation score for everything below.
1. VSSRECMLRPLPDTKTRLAA
2. DCLMDGDFRILGSFIHRFSE
3. QFYTDSFLHIIFSWCGPLDQ
4. MLYVLSYWLLKMPQMLNVNP

Response:
1. inactive
2. inactive
3. inactive
4. inactive

# per-item lookup of amyloid nucleation score; items listed below
1. LFVIHAGMNSTSFFKNMMSC
2. IFIAKLENTVSRLFTFCFIM
3. REMFASPSIGTALRR
4. VFGPRRPMVNCSN
5. YPLFECSDAPSQDNDTMLTR
6. TKSYPRTMFEPALALDMP

Response:
1. inactive
2. inactive
3. inactive
4. inactive
5. inactive
6. 0.871

* * *

# Assay info: amyloid nucleation score (Sup35N fusion, yeast selection) (log enrichment); library NNK3; higher = more nucleation; inactive = no reads after selection
Property measured: amyloid nucleation score

Some substances with known amyloid nucleation score results, for comparison:
Request: Annotate the substance ELLGGLSLLGMSIFVLLSSL with its measured amyloid nucleation score.
Response: inactive

Request: Provide one value: measured amyloid nucleation score of IILRFDGFTMSSPRNLVIDG
Response: inactive

Request: Please supply the value of reported amyloid nucleation score for the item RCVSMEADWVVSAEFTKDVF
Response: inactive

Request: Give the value of amyloid nucleation score reported for the following: SVVEPRRTGTWNSTGVRSQH
Response: inactive

Request: Please supply the value of reported amyloid nucleation score for the item ASTMDW
Response: inactive

// each substance listed below needs its amyloid nucleation score
1. TSIIRMAPRPTHSRVIWFKV
2. FYGECKSVSGNCLTMNGRYT
3. WGWGCLCMWYICYSCVYRDR
4. VAWRLFQNVWVHTGSDGYTV
5. TNLSSSFLTQLRVILMSFLG
6. GVSLATSYKMLLGVIVLGME

Response:
1. inactive
2. -0.561
3. 0.708
4. -0.601
5. 0.798
6. 0.697

For every record below, what is its amyloid nucleation score?
1. MRMVTPLSGRPRWYLHF
2. SSIWSGMSLFGFREIMSYVI

Response:
1: inactive; 2: inactive

Provide amyloid nucleation score values for the following items, in order.
1. CYVIILVRL
2. DMYPFPVCR
3. YDVPTSTDSLFATFVYYGRR
4. FSMWCVSCN
5. HFFMLGLYTSACHLESNYDC
6. HRIVTPPNDLWGVWASTV
7. GWSYRDLTMVGVNELFV

Response:
inactive
inactive
1.44
inactive
0.758
inactive
inactive

* * *

# Assay info: amyloid nucleation score (Sup35N fusion, yeast selection) (log enrichment); library NNK3; higher = more nucleation; inactive = no reads after selection
Property measured: amyloid nucleation score

# annotated cases, reported amyloid nucleation score shown
Request: Query amyloid nucleation score for MSCSASSSGKAWFGGSPTWW
Response: 0.674

Request: Identify measured amyloid nucleation score associated with CVVNLHSRIEARLLQIYRAV
Response: inactive

Request: Report amyloid nucleation score, nothing else, for this substance: STKPFSYYCLRYHRTVTALL
Response: inactive

Request: Give amyloid nucleation score for the following substance: YLYRNRS
Response: inactive

Request: Consider the substance MILLGKNSLDPEGKGVCHVW . State its measured amyloid nucleation score.
Response: inactive

Return reported amyloid nucleation score values for all items listed beneath this line.
1. RIPVSWFNWCTWVYVL
2. WRSTRIRTSWHTDTDFLSNG

Response:
["inactive", "inactive"]

* * *

# Assay info: amyloid nucleation score (Sup35N fusion, yeast selection) (log enrichment); library NNK2; higher = more nucleation; inactive = no reads after selection
Property measured: amyloid nucleation score

Some entries whose results are on file:
Request: Retrieve amyloid nucleation score measured for ERYVCKGC and print it.
Response: inactive

Request: Answer with the recorded amyloid nucleation score of AMYINWSLFVKLSRRMRYQR only.
Response: inactive

Request: Name the recorded amyloid nucleation score of the item DDFGCLYFYILYS in your answer.
Response: inactive

Request: Quick one: give measured amyloid nucleation score for DVFGRGLMKEMGFVNFTLYY
Response: inactive

Request: Kindly indicate its recorded amyloid nucleation score. Item: PHVFYCSILV
Response: inactive

Others:
Request: Annotate the sequence CPLMNLYRNVFYVWKLNFLP with its measured amyloid nucleation score.
Response: inactive

* * *

# Assay info: amyloid nucleation score (Sup35N fusion, yeast selection) (log enrichment); library NNK3; higher = more nucleation; inactive = no reads after selection
Property measured: amyloid nucleation score

Request: Let me know recorded amyloid nucleation score for SLCRRWVNLDTGSPYGTL , thanks.
Response: inactive

Request: Consider the sequence TFFWTRCDIVGREWVSNTVN . State its measured amyloid nucleation score.
Response: inactive

Request: Read off the recorded amyloid nucleation score for IWNRLESFHCHILMVTFHVN
Response: inactive

* * *

# Assay info: amyloid nucleation score (Sup35N fusion, yeast selection) (log enrichment); library NNK3; higher = more nucleation; inactive = no reads after selection
Property measured: amyloid nucleation score

Here is how some substances turned out for amyloid nucleation score.
Request: Report amyloid nucleation score for REGRVLVWYSYYKFYTRHYF
Response: 0.004

Request: Provide amyloid nucleation score value for the following substance: WNEAWWNNRLGLARMVVLLG
Response: inactive

Request: Entry AVTFTHRFSRISPCHRRRWK needs its amyloid nucleation score filled in; supply it.
Response: 1.16

Request: Please list amyloid nucleation score recorded for the substance KLWFGHMPTIF
Response: inactive

Request: Output measured amyloid nucleation score for this item: SKCVGISLRALVYYGHSQVT
Response: inactive

Return reported amyloid nucleation score values for all items listed beneath this line.
1. RCKIENVIYM
2. VQKSMR
3. SYPGRLYSSGYDCVYSNRSR
4. YKHVARLEP

Response:
[2.44, "inactive", "inactive", "inactive"]

For every item in the list below, what is its measured amyloid nucleation score?
1. AKHGLVDAQRALGISYQKNK
2. CRKNRSFGDGDLKFCANLNC
3. WSMLPLKNTIAKQ
4. RKASSVFILGFVWWDHFEIL
5. LIFPWDLRKGAHHPGLRSCI

Response:
0.967
inactive
inactive
inactive
inactive

Hey, quick one: what's amyloid nucleation score for each of these?
1. MGGLIFVSLKAWSIILHYNK
2. LRLNKLCEVFAPLTSVLAGT

Response:
inactive
inactive

Where do these numbers come from? They come from the supplement of paper PMC12042874.
